test: Cytotoxicity against HEK293 cells after 48 hrs by MTT assay; type: cell-based; details: human, read-out: LC50
MEASURED_ENDPOINT: CC50 at 48 h (µM)

[[record]]
substance_smiles = "O=C1C(c2ccc(O)cc2)=C(c2ccc(F)cc2)C(=O)N1CCCNS(=O)(=O)c1ccc(OC(F)(F)F)cc1"
value_unit = "µM"
result_operator = "="
reported = 24.8

[[record]]
substance_smiles = "CCc1ccc(S(=O)(=O)NCCCN2C(=O)C(c3ccc(O)cc3)=C(c3ccc(F)cc3)C2=O)cc1"
value_unit = "µM"
result_operator = "="
reported = 11.5

[[record]]
substance_smiles = "CCc1ccc(S(=O)(=O)NCCCCN2C(=O)C(c3ccc(F)cc3)=C(c3ccc(OCC(=O)NCC(=O)NCC(=O)O)cc3)C2=O)cc1"
value_unit = "µM"
result_operator = ">"
reported = 100

